Source listed as patent US20190359653A1.

Target: T1, hFZD8 CRD-Fc (human, UniProt Q9H461 28-158, limits assumed)
T1 construct: domain: CRD; bought (R&D Systems); not shown: Fc part
T1 sequence (looked up): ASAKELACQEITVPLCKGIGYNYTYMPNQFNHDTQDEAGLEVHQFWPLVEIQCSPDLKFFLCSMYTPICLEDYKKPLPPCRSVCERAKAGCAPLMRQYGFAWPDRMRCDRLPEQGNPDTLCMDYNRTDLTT
Assay: spot phage ELISA
Ends that are not written are not given here.
Would you kindly list signal:noise ratio for each of these binders?
Numbers only.

binder="TSDFSWCLSWCDLIFW (not fully specified; cysteine pairing not given here, cyclic peptide library) [SEQ ID NO 35]" recorded_number=1.27

Quick one: give me signal:noise ratio for each item below, same order please.
1. FDFCSVMPQFIYCPGD (not fully specified; cysteine pairing not given here, cyclic peptide library; also called Fz7-20) [SEQ ID NO 33]
2. HLSDVCCSDWCDLVFW (not fully specified; cysteine pairing not given here, cyclic peptide library) [SEQ ID NO 34]
3. HLSDVFCSDWCDLVFW (not fully specified; cysteine pairing not given here, cyclic peptide library) [SEQ ID NO 38]
4. SSDFSGCLSWCDLIFG (not fully specified; cysteine pairing not given here, cyclic peptide library) [SEQ ID NO 32]
5. FDFCTVMPHFIYCPGD (not fully specified; cysteine pairing not given here, cyclic peptide library) [SEQ ID NO 36]

[reply]
[2.1, 1.09, 1.28, 1.39, 2.01]

[ask] I am curious: what signal:noise ratio value has been reported for FDFCSVMPHFIYCPGD (not fully specified; cysteine pairing not given here, cyclic peptide library) [SEQ ID NO 37] ?
[reply] 1.12
